system: Rattus norvegicus; assay: Antioxytocic potencies (change in interuterine pressure) in vivo in estrogen pre-treated rats.; type: functional, organism-based; details: read-out: pA2 (converted)
Starred links: 1 amine or outer side, 2 acyl side, 3 side chain; linkers in the order of their positions; H or OH if unused. Positions of bridges follow the written chain, without caps; N, C: chain ends. Non-standard residues stand in square brackets, D forms with d. Residues, ends and D or L forms follow the SMILES beside them. X1 = O=C(CC1(S[*:2])CCCCC1)[*:1]; Orn = NCCC[C@H](N)C(=O)O
Would you mind labelling by Kb? At or over 30 nM is MET, under is NOT MET.

// known answers, use as guide
* CC[C@H](C)[C@@H]1NC(=O)C(Cc2ccc(OC)cc2)NC(=O)CC(C)(C)SSC[C@@H](C(=O)N2CCC[C@H]2C(=O)N[C@@H](CCCN=C(N)N)C(=O)NCC(N)=O)NC(=O)[C@H](CC(N)=O)NC(=O)[C@H](C(C)C)NC1=O (stereo in doubt) | NOT MET
* COc1ccc(C[C@H]2NC(=O)CC3(CCCCC3)SSC[C@@H](C(=O)N3CCC[C@H]3C(=O)N[C@@H](CCCN=C(N)N)C(=O)NCC(N)=O)NC(=O)[C@H](CC(N)=O)NC(=O)[C@H](CCC(N)=O)NC(=O)[C@H](Cc3ccccc3)NC2=O)cc1 | MET
* CC[C@H](C)[C@@H]1NC(=O)C(Cc2ccc(OC)cc2)NC(=O)CC(C)(C)SSC[C@@H](C(=O)N2CCC[C@H]2C(=O)N[C@@H](CCCN=C(N)N)C(=O)NCC(N)=O)NC(=O)[C@H](CC(N)=O)NC(=O)[C@H](CCC(N)=O)NC1=O (stereo in doubt) | NOT MET
* CC[C@H](C)[C@@H]1NC(=O)[C@H](Cc2ccc(OC)cc2)NC(=O)CC2(CCCCC2)SSC[C@@H](C(=O)N2CCC[C@H]2C(=O)N[C@@H](CCCN)C(=O)N[C@@H](CCCN=C(N)N)C(N)=O)NC(=O)[C@H](CC(N)=O)NC(=O)[C@H]([C@@H](C)O)NC1=O | NOT MET
* CCOc1ccc(C[C@H]2NC(=O)CC3(CCCCC3)SSC[C@@H](C(=O)N3CCC[C@H]3C(=O)N[C@@H](CCCN=C(N)N)C(=O)NCC(N)=O)NC(=O)[C@H](CC(N)=O)NC(=O)[C@H](C(C)C)NC(=O)[C@H](Cc3ccccc3)NC2=O)cc1 ([dY](Et)FVNCPRG-NH2; linker N-5 via X1) | MET

Prompt: API: above_or_equal(metric=Kb, cutoff=30 nM) for item CC[C@H](C)[C@@H]1NC(=O)C(Cc2ccc(OC)cc2)NC(=O)CC2(CCCCC2)SSC[C@@H](C(=O)N2CCC[C@H]2C(=O)N[C@@H](CCCCN)C(=O)NCC(N)=O)NC(=O)[C@H](CC(N)=O)NC(=O)[C@H](CCC(N)=O)NC1=O (stereo in doubt)
Response: MET

Prompt: Does the molecule COc1ccc(C[C@H]2NC(=O)CC3(CCCCC3)SSC[C@@H](C(=O)N3CCC[C@H]3C(=O)N[C@@H](CCCN=C(N)N)C(=O)NCC(N)=O)NC(=O)[C@H](CC(N)=O)NC(=O)[C@H](C(C)C)NC(=O)[C@H](Cc3ccccc3)NC2=O)cc1 have recorded Kb that is 30 nM or more?
Response: NOT MET

Prompt: Could you please find out whether CC[C@H](C)[C@@H]1NC(=O)[C@H](Cc2ccc(OC)cc2)NC(=O)CC2(CCCCC2)SSC[C@@H](C(=O)N2CCC[C@H]2C(=O)N[C@@H](CCCN)C(=O)O)NC(=O)[C@H](CC(N)=O)NC(=O)[C@H]([C@@H](C)O)NC1=O (Y(Me)ITNCP[Orn]-OH; linker N-5 via X1) has Kb that meets 30 nM or exceeds it?
Response: NOT MET
